target: Calcium-dependent protein kinase 1 (Plasmodium falciparum (isolate 3D7)); test: PfCDPK1 kinase inhibitors, biochemical, TCAMS library (AID 1159585); settings: recombinant PfCDPK1, Kinase-Glo ATP depletion luminescence;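 note: inhibitors leave more ATP so luminescence rises with inhibition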
Entries with a potency or affinity are not part of this list. Active and inactive are the calls of the source. No cut-off is given here; in the data, nearly all actives have IC50 up to about 0.98 µM.
REPORTED_METRIC: outcome

[[record]]
compound_string = "O=C(/C=C/c1ccc(Cl)cc1)NCCCCCN1CCC(C(=O)Nc2cccc(Cl)c2)CC1"
experimental_target = "Calcium-dependent protein kinase 1 (Plasmodium falciparum (isolate 3D7))"
reported_metric = "outcome"
result = "inactive"

[[record]]
compound_string = "c1cc(CNCC2CCN(CC3CCCCC3)CC2)cc(-n2ccnc2)c1"
experimental_target = "Calcium-dependent protein kinase 1 (Plasmodium falciparum (isolate 3D7))"
reported_metric = "outcome"
result = "inactive"

[[record]]
compound_string = "CCN(CC)CCNC(=O)c1ccc(NC(=O)c2cc3c(C)nn(-c4ccc(Cl)cc4)c3s2)cc1"
experimental_target = "Calcium-dependent protein kinase 1 (Plasmodium falciparum (isolate 3D7))"
reported_metric = "outcome"
result = "inactive"

[[record]]
compound_string = "CCOc1ccc2c(c1)N(C(=O)C=Cc1ccccc1)C(C)(C)c1ssc(=S)c1-2"
experimental_target = "Calcium-dependent protein kinase 1 (Plasmodium falciparum (isolate 3D7))"
reported_metric = "outcome"
result = "inactive"


Proceed to the following item.
Param readout = outcome; param system = Calcium-dependent protein kinase 1 (Plasmodium falciparum (isolate 3D7)); param query = Nc1c2ccccc2nc2cc(Cl)ccc12 ; response: value
inactive

----------
assay: antimalarial activity against Dd2 strain (AID 2302);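 note: 0% = DMSO untreated growth and 100% = chloroquine plus artemisinin killed control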; details: P. falciparum Dd2 in RBCs, LDH growth readout, 72 h; at 2 µM
The source made the active and inactive calls.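 The calls were made as follows: active = growth inhibition above 50% at the single 2 µM test dose, taken to imply half-maximal potency below 2 µM; inactive = the rest.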
Reply using exactly one outcome from 1.0 (active), 0.0 (inactive)

Recorded test call requested for Cc1nc2c(Nc3nc(-c4ccncc4)cs3)ncnc2n1-c1ccccc1Cl
1.0

Name the outcome recorded for Cc1cc(Nc2ccc(O)cc2)nc2cccc(O)c12 in the assay.
0.0

Please indicate how the test categorized CN1CCN(c2ccnc3ccc(NC(=O)Nc4ccc(-c5ccccc5)cc4)cc23)CC1 .
0.0

Identify the outcome logged in this assay for the compound shown: CCc1sc(CN(CCCNc2cc(=O)c3ccccc3[nH]2)Cc2sc(CC)c(Br)c2-c2ccsc2)c(-c2ccsc2)c1Br
1.0

Which outcome was assigned to CCCN(Cc1nnc(-c2cccs2)o1)C(=O)CSc1nnnn1-c1cc(C)cc(C)c1 in this test?
1.0

Field: outcome | Entry: Cc1ccc2c(Cl)c(C(=O)N3CC(C)OC(C)C3)sc2c1 (stereo not given)
1.0

Hey, what did the test say about Cc1ccc2c(c1)nc(N)n2C[C@H](O)c1ccccc1 ?
1.0

Just curious, what result did COc1ccc2nc(C)cc(NN=Cc3ccc(F)cc3)c2c1 get here?
1.0

Tell me the assay call for N#Cc1cccc(-c2cccc(C(=O)NC3CCC(CCN4CCc5ccc(C#N)cc5CC4)CC3)c2)c1 (stereo not given) please.
1.0

Outcome? CN1CCN(c2cccc(Nc3nccc(NCC(O)c4ccccc4)n3)c2)CC1 (stereo not given)
0.0

----------
biological target: Calcium-dependent protein kinase 1 (Plasmodium falciparum (isolate 3D7)); assay: PfCDPK1 kinase inhibitors, biochemical, TCAMS library (AID 1159585); conditions: recombinant PfCDPK1, Kinase-Glo ATP depletion luminescence;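 note: inhibitors leave more ATP so luminescence rises with inhibition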
Results with a measured potency or affinity are listed apart. Activity calls are given as the source filed them. No cut-off is given here; in the data, nearly all actives have IC50 up to about 0.98 µM.
REPORTED_METRIC: outcome

In the examples that follow, each entry is paired with its recorded outcome.
[[record]]
compound = "CCN1CCCC(Nc2ccnc3cc4ccccc4cc23)C1 (stereo not given)"
result = "inactive"

[[record]]
compound = "Cc1cccc(NC(=O)Nc2ccc(I)c(OCCN(C)C)c2)c1C"
result = "inactive"

[[record]]
compound = "CC(=O)Nc1ncc(C(=O)Nc2cccc(-c3cccc(-c4nc5ccccc5[nH]4)c3)c2)s1"
result = "inactive"

[[record]]
compound = "CC1CCCN(S(=O)(=O)c2ccc(NC(=O)c3cc(-c4ccccc4O)n[nH]3)cc2)C1 (stereo not given)"
result = "inactive"

[[record]]
compound = "COc1ccccc1CCNc1nccc(N[C@@H](Cc2ccccc2)C(=O)NCc2cccs2)n1"
result = "inactive"


Now look at this one.
I have this compound here, COc1ccc(-n2nc(C(=O)NCCC3=CCCCC3)c3ccccc3c2=O)cc1 , and I need its recorded outcome.
inactive

----------
assay: antimalarial activity against Dd2 strain (AID 2302);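 note: 0% = DMSO untreated growth and 100% = chloroquine plus artemisinin killed control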; details: P. falciparum Dd2 in RBCs, LDH growth readout, 72 h; at 2 µM
Activity calls are given as the source filed them.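 Rule for the calls: active = growth inhibition above 50% at the single 2 µM test dose, taken to imply half-maximal potency below 2 µM; inactive = the rest.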
Use one of these outcomes when replying: active, inactive

Called result for O=C(Nc1ccc(-c2csc(-c3nc4ccccc4[nH]3)c2)cc1)Nc1ccc(Cl)c(Cl)c1
inactive

Assay outcome for Cc1ccc2nc3ccccc3c(NCCN3CCN(C)CC3)c2c1 : what was it?
inactive

What did this assay record as the result for CCCN1CCN(Cc2ccc(C(=O)Nc3ccc(Cl)cc3)cc2)CC1 ?
inactive

Hi, sorry to bother you, what did the test record for COc1cc(CNCCCCCCNCc2cc(OC)c3ccccc3c2OC)c(OC)c2ccccc12 ?
inactive

GET /call?item= COc1ccc(Cl)cc1N1CCN(CCCNC(=O)c2ccc(-c3nc4cc(Cl)c(Cl)cc4[nH]3)c(C)c2)CC1 returns the recorded outcome of this test.
inactive

Recorded call for O=C(Nc1cncc(NC(=O)c2ccc(Cl)c(Cl)c2)c1)c1ccc(Cl)c(Cl)c1 ?
active

Could you please tell me the result logged for O=C(Nc1cccc(C(F)(F)F)c1)c1ccc(S(=O)(=O)NCC2CCCN2CC2CCCCC2)cc1 (stereo not given) in this assay?
inactive

What was the test verdict on CCN1CCN(CCCNc2ccnc3cc(Cl)ccc23)CC1 ?
active

# outcome recorded in this test, key = CN(Cc1cccc(F)c1)C1CCCN(c2cc(NC(=O)c3ccccc3)ccn2)C1 (stereo not given)
active

Record request — test call for O=[N+]([O-])c1cccc(NC(=S)N2CCCN(Cc3ccc(C(F)(F)F)cc3)CC2)c1
inactive

----------
target: Protein kinase 7 (PK7), Plasmodium falciparum 3D7 (PF3D7_0213400); assay: inhibition of Plasmodium PK7 catalytic activity – biochemical, TCAMS antimalarial set, Kinase-Glo luminescence (AID 1159587); settings: recombinant PfPK7, Kinase-Glo ATP depletion luminescence
Active and inactive are the calls of the source. How the calls were made is not given here.
REPORTED_METRIC: outcome

Take a look at these entries with their results.
[[record]]
molecule = "COc1ccccc1/C=C/C(=O)NCCC1CCN(CCCCCNC(=O)/C=C/c2ccc(Cl)c(Cl)c2)CC1"
reported_metric = "outcome"
result = "inactive"

[[record]]
molecule = "CC1(C)CCC(=Cc2ccc(Cl)cc2)CC1(O)Cn1ccnc1 (stereo not given)"
reported_metric = "outcome"
result = "inactive"

[[record]]
molecule = "O=C(NCCCN1CCOCC1)c1csc(Nc2ccc(Cl)c(Cl)c2)n1"
reported_metric = "outcome"
result = "inactive"

[[record]]
molecule = "O=C(Cn1c(CCc2cccc(F)c2F)cc(=O)c2cccnc21)N(CCCn1ccnc1)Cc1ccc(-c2ccc(C(F)(F)F)cc2)cc1"
reported_metric = "outcome"
result = "inactive"

[[record]]
molecule = "Nc1nc(F)nc2nc[nH]c12"
reported_metric = "outcome"
result = "inactive"


For the molecule shown here, COc1ccc2nccc([C@@H](O)CN3CCC(NC(=O)C(c4cc5ccccc5s4)N4CCN(c5ccccc5OC)CC4)CC3)c2c1 (stereo not given in full) , give the reported outcome.
inactive

Entry under review: CCC(C)CC(=O)Nc1ccc(OC)c(S(=O)(=O)N[C@@H]2CCN(C#N)C2)c1 (stereo not given in full) . Reported outcome?
inactive

Can you share its outcome? I mean this molecule: COc1ccc(Cl)cc1NC(=O)C(C)N1CCN(S(=O)(=O)c2ccccc2F)CC1 (stereo not given)
inactive

Field request: outcome | item: O=C(Nc1cccc(CN2CCCN(CC3CC3)CC2)c1)c1ccc(Cl)c(Cl)c1
inactive

Query: outcome; subject: Cc1cccc2[nH]c(-c3cccc(-c4ccc(NC(=O)C5CC(=O)Nc6ccccc65)cc4)c3)nc12 (stereo not given)
inactive

What outcome value was documented for this molecule, CCn1c(-c2nonc2N)nc2c(C#CC(C)(C)O)ncc(OCCNCCc3ccc(OC)cc3)c21 ?
inactive

Return reported outcome; argument: OCCCCCCNc1ccnc2[nH]c3ccc(I)cc3c12
inactive

----------
For each entry below, report its inhibition value.
target: L-lactate dehydrogenase (Plasmodium falciparum (isolate CDC / Honduras)); experiment: PfLDH activity inhibition – cell lysate, 3D7 strain, counter-screen for P. falciparum growth inhibition project (AID 2304);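 note: 0% = vehicle and 100% = reference inhibitor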; settings: P. falciparum 3D7 crude extract, LDH APAD/NBT absorbance; at 2 µM; active compounds read high
Numeric answer only, unit % assumed.

Value lookup for inhibition; key = c1ccc(CN2CCC(NCc3ccccc3-c3ccc(CNCc4ccc5c(c4)OCO5)cc3)CC2)cc1
3

Any idea what inhibition was measured for O=C(Nc1cccc(-c2cccc(-c3nc4ccc(C(F)(F)F)cc4[nH]3)c2)c1)Nc1ccc(F)c(F)c1F ?
6

# lookup: inhibition of O=C(c1ccc(O)c(-c2cc(Cl)cc(Cl)c2)c1)N1CCCC1
-6

If you can, please state the reported inhibition value of Nc1nc(N)c2c(ccc3ccccc32)n1 .
-1

If you can, please state the reported inhibition value of CNc1ccc(CNCc2ccc(-c3ccc(-c4nc5ccc(F)cc5[nH]4)cc3)cc2)cc1 .
-5

Using the record for CCOc1ccc(-c2cc3nc(C4CCNCC4)c(C(=O)Nc4ccc(C)cc4Cl)cn3n2)cc1 , report its inhibition.
2

Quick check: inhibition of Cc1cc(NN=Cc2cccc([N+](=O)[O-])c2)c2cc(F)ccc2n1 ?
-5

// inhibition lookup, key: N#Cc1cccc(Nc2nccc(NCC(O)c3ccc(C(F)(F)F)cc3)n2)c1 (stereo not given)
4

Could you share which inhibition value was measured for O=C(Nc1ccc(Cl)cc1)Nc1cccc(-c2cc(CNCCc3ccccc3)oc2-c2ccncc2)c1 ?
1

Fill blank: measured inhibition of the molecule Cc1cc(Nc2ccc(O)cc2)nc2cc(O)ccc12 is ____.
-2
